src = patent US9468632B2

# ASSAYED_SYSTEM: ALDH1A1 (S121) (Homo sapiens, UniProt P00352, N121S)
# Sequence (P00352 whole entry N121S): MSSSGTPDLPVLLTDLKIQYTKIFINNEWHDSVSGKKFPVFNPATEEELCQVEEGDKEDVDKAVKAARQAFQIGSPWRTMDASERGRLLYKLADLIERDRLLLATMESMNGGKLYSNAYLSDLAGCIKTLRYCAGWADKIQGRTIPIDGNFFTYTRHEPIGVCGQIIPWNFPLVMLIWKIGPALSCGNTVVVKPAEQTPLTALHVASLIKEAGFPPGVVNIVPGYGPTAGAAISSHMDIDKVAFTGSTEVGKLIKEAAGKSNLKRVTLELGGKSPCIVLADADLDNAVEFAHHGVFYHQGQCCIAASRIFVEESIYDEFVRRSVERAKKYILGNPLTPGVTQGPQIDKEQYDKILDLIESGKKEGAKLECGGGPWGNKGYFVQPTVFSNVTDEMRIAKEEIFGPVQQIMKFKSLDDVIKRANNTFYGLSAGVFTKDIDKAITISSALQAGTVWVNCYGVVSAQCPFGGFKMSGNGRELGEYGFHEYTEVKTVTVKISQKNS
# PROTOCOL_SUMMARY: In vitro enzymatic inhibition assay, ALDH1A1 (S121)
MEASURED_ATTRIBUTE: IC50

Cc1cc(N2Cc3ccccc3C2)ccc1C=O [673A] :: 230 nM

We next turn to a different molecule, shown below.
## Input Quick one: IC50 for O=Cc1ccc(N2Cc3ccccc3C2)cc1 [673B] ?
## Output 1240 nM

---

# ASSAYED_SYSTEM: ALDH1A3 (Homo sapiens, UniProt P47895)
# Sequence (P47895 whole entry): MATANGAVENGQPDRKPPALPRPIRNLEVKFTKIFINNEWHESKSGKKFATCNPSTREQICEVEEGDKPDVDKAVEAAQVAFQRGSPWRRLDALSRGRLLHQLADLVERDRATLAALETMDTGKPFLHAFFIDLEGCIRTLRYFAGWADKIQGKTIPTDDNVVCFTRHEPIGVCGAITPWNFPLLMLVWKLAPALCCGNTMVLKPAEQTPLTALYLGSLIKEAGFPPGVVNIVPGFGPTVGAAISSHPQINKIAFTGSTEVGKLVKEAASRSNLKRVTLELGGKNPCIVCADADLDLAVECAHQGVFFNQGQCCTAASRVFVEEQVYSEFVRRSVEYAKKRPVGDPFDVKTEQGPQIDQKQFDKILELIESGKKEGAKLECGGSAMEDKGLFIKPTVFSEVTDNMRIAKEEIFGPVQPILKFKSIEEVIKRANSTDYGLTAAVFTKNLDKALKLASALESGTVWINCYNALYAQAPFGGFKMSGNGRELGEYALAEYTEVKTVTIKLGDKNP
# PROTOCOL_SUMMARY: In vitro enzymatic inhibition assay, ALDH1A3
# Format: biochemical
# CONDITION_SET: 2 min incub
MEASURED_ATTRIBUTE: pIC50
The value called pIC50 is obtained by taking minus log10 of the concentration in mol/L.

Cc1cc(N2Cc3ccccc3C2)ccc1C=O [673A] :: 6.77

We next turn to a different compound, shown below.
## Input Quick one: pIC50 for O=Cc1ccc(N2Cc3ccccc3C2)cc1 [673B] ?
## Output 5.87

---

# ASSAYED_SYSTEM: ALDH1A1 (WT) (Homo sapiens, UniProt P00352)
# Sequence (P00352 whole entry): as the sequence (P00352 whole entry N121S) above, with S121N counted along it
# PROTOCOL_SUMMARY: In vitro enzymatic inhibition assay, ALDH1A1 (WT)
# Type: biochemical
MEASURED_ATTRIBUTE: pIC50
The value called pIC50 is obtained by taking minus log10 of the concentration in mol/L.

Cc1cc(N2Cc3ccccc3C2)ccc1C=O [673A] :: 6.67

We next turn to a different compound, shown below.
## Input What measured pIC50 is associated with O=Cc1ccc(N2Cc3ccccc3C2)cc1 [673B] on ALDH1A1 (WT) (Homo sapiens, UniProt P00352)?
## Output 6.35

---

Target chain: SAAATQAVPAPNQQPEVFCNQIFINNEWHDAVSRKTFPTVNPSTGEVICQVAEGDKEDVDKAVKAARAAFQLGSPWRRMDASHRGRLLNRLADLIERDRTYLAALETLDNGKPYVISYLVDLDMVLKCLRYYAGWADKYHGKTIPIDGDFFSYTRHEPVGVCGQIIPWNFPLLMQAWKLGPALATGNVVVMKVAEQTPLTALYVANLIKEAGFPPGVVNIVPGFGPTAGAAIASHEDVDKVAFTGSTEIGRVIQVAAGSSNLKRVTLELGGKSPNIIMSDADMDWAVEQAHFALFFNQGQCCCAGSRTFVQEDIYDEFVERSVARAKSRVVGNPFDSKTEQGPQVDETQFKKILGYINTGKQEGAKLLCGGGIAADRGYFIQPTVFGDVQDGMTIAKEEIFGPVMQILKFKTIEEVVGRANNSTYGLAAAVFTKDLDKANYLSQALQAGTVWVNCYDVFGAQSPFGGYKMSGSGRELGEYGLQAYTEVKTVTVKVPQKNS
MEASURED_ATTRIBUTE: IC50 (nM)
A number alone suffices; assume nM.

## Input Quick one: IC50 for Cc1cc(N2Cc3ccccc3C2)ccc1C=O [673A] ?
## Output 1680
